System: A. niger ATCC 16404
Readout Type: MIC50

Use these answered entries as a reference point.
                                   molecule  readout_type  value_reported
0  COc1ccc(/C=C/C(=O)c2ccc(OCC(O)(Cn3cncn3)c3ccc(F)cc3)cc2)cc1 (centres unmarked) [Compound 1A-10]         MIC50       > 4 µg/mL
1  O=C(/C=C/c1ccc(Cl)cc1Cl)c1ccc(OCC(O)(Cn2cncn2)c2ccc(F)cc2F)cc1 (centres unmarked) [Compound 1A-7]         MIC50       > 4 µg/mL
2  COc1ccc(C(=O)/C=C/c2ccc(OCC(O)(Cn3cncn3)c3ccc(F)cc3F)c(OC)c2)cc1 (centres unmarked) [Compound 1A-23]         MIC50       > 4 µg/mL

response.value for O=C(/C=C/c1c2ccccc2cc2ccccc12)c1ccc(OCC(O)(Cn2cncn2)c2ccc(F)cc2F)cc1 (centres unmarked) [Compound 1A-15] (field: MIC50) = > 2 µg/mL

# molecule COc1ccc(/C=C/C(=O)c2ccc(OC[C@@](O)(Cn3cncn3)c3ccc(F)cc3F)cc2)cc1 [S-(+)-1A-2] ; its MIC50 = > 4 µg/mL

Item: O=C(/C=C/c1ccc(OCC(O)(Cn2cncn2)c2ccc(F)cc2F)cc1)c1ccc(Cl)cc1Cl (centres unmarked) [Compound 1A-22] | MIC50: > 4 µg/mL

response.value for OC(COc1ccc(C2=NNC(c3ccc(Cl)cc3Cl)C2)cc1)(Cn1cncn1)c1ccc(F)cc1F (centres unmarked) [Compound 1E-1] (field: MIC50) = > 8 µg/mL

Measured MIC50 of Cn1cc(/C=C/C(=O)c2ccc(OCC(O)(Cn3cncn3)c3ccc(F)cc3F)cc2)c2ccccc21 (centres unmarked) [Compound 1A-16] : > 4 µg/mL

The molecule listed as O=C(/C=C/c1ccc(Cl)cc1)c1ccc(OCC(O)(Cn2cncn2)c2ccc(F)cc2)cc1 (centres unmarked) [Compound 1A-12] has a reported MIC50 of > 4 µg/mL

The value of MIC50 measured for the molecule COC(COc1ccc(C(=O)/C=C/c2ccc(Cl)cc2Cl)cc1)(Cn1cncn1)c1ccc(F)cc1F (centres unmarked) [Compound 1A-19] turned out to be > 4 µg/mL

Measured MIC50 of COc1cc(/C=C/C=O)ccc1OCC(O)(Cn1cncn1)c1ccc(F)cc1F (centres unmarked) [Compound 1A-29] : > 64 µg/mL

# molecule O=C(/C=C/c1cccs1)c1ccc(OC[C@@](O)(Cn2cncn2)c2ccc(F)cc2F)cc1 [S-(+)-1A-13] ; its MIC50 = > 4 µg/mL

Form: molecule = CC(=O)/C=C/c1ccc(OCC(O)(Cn2cncn2)c2ccc(F)cc2F)cc1 (centres unmarked) [Compound 1A-25] ; MIC50 = 8 µg/mL

Notebook: O=C(/C=C/c1ccccc1F)c1ccc(OCC(O)(Cn2cncn2)c2ccc(F)cc2F)cc1 (centres unmarked) [Compound 1A-8] , MIC50 read as > 4 µg/mL

src = patent US9512087B2
